system: CD8^+ T cells
No end group written: not given here.
What EC50 was measured for each of the following?
One number for each entry, in nM.

# count of solved cases: 2
{"chain": "NMLSTVLGV [PB1413-421, NMLSTVLGV]", "readoutType": "EC50", "numericResult": 0.89}
{"chain": "GILGFVFVL [M158-66, GILGFVFVL, reference compound]", "readoutType": "EC50", "numericResult": 8.1}

Prompt line: Output measured EC50 for this item: GLDNHTILL [HA543-551, GLDNHTILL]
Response line: 0.78
